# Test system: 786-0 renal
# ASSAY NOTES: NCI tumour cell line growth inhibition, 48 h
MEASURED PARAMETER: TGI

# count of solved cases: 3
>>> experimental_value("CC(C)(C)C(=O)N(C(=S)OCc1ccccn1)c1ccccc1")
"> 100 µM"
>>> experimental_value("COc1ccc(NC(=O)/C(Cc2nc3ccccc3[nH]c2=O)=N\\O)c(OC)c1")
"> 100 µM"
>>> experimental_value("O=C(COc1ccc(/C=C/C(=O)c2ccc(Cl)cc2)cc1)Nc1c(Cl)cccc1Cl")
"> 100 µM"

Shifting focus to the compound that follows.
// field: TGI; key: C=CC1(CC)/C(=N\O)C(CC)(CC)C(=O)N1O (centres undefined) ; value = > 100 µM
